Source of measurements: the supplement of paper PMC10981050

Tested on: K562;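 note: after 48 h exposure read by CellTiter-Glo luminescence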
Assay: cell viability relative to vehicle control; higher = less cytotoxic
Settings: 10 µM; SRSF2 genotype: SRSF2 wt/wt
Measurement kind: cell viability (%)
Give bare numbers, in %.

Field: example entries. Status: answers known.
CC(C)(O[C@@H]1O[C@H](CO)[C@@H](O)[C@H](O)[C@H]1O)[C@H]1Cc2cc3ccc(=O)oc3cc2O1 ... 109
CC(=O)c1ccc(NN=C(C(N)=O)C2=NC(C)(C)Cc3ccccc32)cc1 ... 86.9
CC(C)(C)OC(=O)N[C@H]1CCCCC/C=C\[C@@H]2C[C@@]2(C(=O)NS(=O)(=O)C2CC2)NC(=O)[C@@H]2C[C@@H](OC(=O)N3Cc4cccc(F)c4C3)CN2C1=O ... 98.9

Each molecule below has a recorded value; state its cell viability.
1. Cn1c(=O)c(F)c(Nc2ccc(I)cc2F)c2c(=O)n(C[C@@H](O)CO)cnc21
2. O=C(O)CC(C(=O)O)n1c(O)c(C2=c3cc(Br)ccc3=NC2=O)sc1=S (centres undefined)
3. CC(C)(C)C(=O)Oc1ccc(S(=O)(=O)Nc2ccccc2C(=O)NCC(=O)O)cc1 [Sivelestat sodium tetrahydrate]
4. O=C(O)c1cc(I)ccc1NC(=O)[C@H](Cc1ccccc1)NCc1ccccc1
5. Cc1cccc(C)c1OCC(=O)N[C@@H](Cc1ccccc1)[C@@H](O)C[C@H](Cc1ccccc1)NC(=O)[C@H](C(C)C)N1CCCNC1=O
6. CC(C)C[C@@H]1NC(=O)[C@@H](C(C)C)NC(=O)[C@@H]2CCCN2C(=O)[C@@H](CC(=O)O)NC(=O)[C@@H](Cc2c[nH]c3ccccc23)NC1=O

Response:
1: 77; 2: 99.6; 3: 102; 4: 101; 5: 86.7; 6: 97

For every item below, please supply its cell viability.
1. CC1(C)CC[C@]2(C(=O)O[C@@H]3O[C@H](CO)[C@@H](O)[C@H](O)[C@H]3O)CC[C@]3(C)C(=CC[C@@H]4[C@@]5(C)CC[C@H](O[C@@H]6O[C@H](C(=O)O)[C@@H](O)[C@H](O)[C@H]6O[C@@H]6O[C@H](CO)[C@@H](O)[C@H](O)[C@H]6O)C(C)(C)[C@@H]5CC[C@]43C)[C@@H]2C1 [Ginsenoside Ro]
2. O=C(Nc1cccc(C(F)(F)F)c1)c1cccc2cc(Oc3cc(CO)ncn3)ccc12
3. C=CC(=O)Nc1cccc(Nc2nc(Nc3ccc(OCCOC)cc3)ncc2F)c1
4. O=C(O)C=C(CC(=O)O)C(=O)O [cis-Aconitic acid]

Response:
95.9
87.8
73.4
101

Noted for O=C(NCc1ccccc1)c1csc(Nc2ccncn2)n1 : its cell viability reads 100
